- Tested on: CAL-120
- procedure.text: normalised viability (% of control), CellTiter-Blue; higher = more viable cells (about 100 = DMSO control)
- experimental.conditions: 100 nM; incubation time: 72 h
Assign labels as follows, please: fulfilled for normalised viability below 90%; not fulfilled for normalised viability equal to or exceeding 90%.

compound	class.label
CCN(CC)CCCC(C)Nc1c2ccc(Cl)cc2nc2ccc(OC)cc12 (stereo not given)	not fulfilled
O=C(Cc1ccc(-c2ccc(OCCN3CCOCC3)cc2)cn1)NCc1ccccc1	fulfilled
Nc1ccccc1NC(=O)c1ccc(CNC(=O)OCc2cccnc2)cc1	fulfilled

* * *

- System: CAL-120
- procedure.text: normalised response (% of control), CellTiter-Glo; higher = more viable cells (100 = DMSO, 0 = benzethonium chloride kill control)
- experimental.conditions: incubation time: 72 h
Each record here notes measured normalised response.
endpoint.name: normalised response (%)

molecule	endpoint.name	unit.abbrev	value.measured
Cc1ccc(-c2cc(C(F)(F)F)nn2-c2ccc(S(N)(=O)=O)cc2)cc1 [Celecoxib] (100 nM)	normalised response	%	103
Nc1nc(F)nc2c1ncn2[C@@H]1O[C@H](CO)[C@@H](O)[C@@H]1O [Fludarabine] (100 nM)	normalised response	%	101
CCN(CC)CCCC(C)Nc1c2ccc(Cl)cc2nc2ccc(OC)cc12 (stereo not drawn) [Mepacrine] (500 nM)	normalised response	%	44.1
CC1=C(/C=C/C(C)=C/C=C/C(C)=C/C(=O)O)C(C)(C)CCC1 [Tretinoin] (100 nM)	normalised response	%	105
O=C(/C=C/c1cccnc1)NCCCCC1CCN(C(=O)c2ccccc2)CC1 [Daporinad] (10 nM)	normalised response	%	56.2
COc1cc2c(Oc3ccc4[nH]c(C)cc4c3F)ncnc2cc1OCCCN1CCCC1 [Cediranib] (10 nM)	normalised response	%	103
Oc1ncc(N(CCCl)CCCl)c(O)n1 [Uracil mustard] (100 nM)	normalised response	%	103
C=CCc1cccc(/C=N/NC(=O)CN2CCN(Cc3ccccc3)CC2)c1O [PAC-1] (100 nM)	normalised response	%	103
COc1cc([C@@H]2c3cc4c(cc3[C@@H](O[C@@H]3O[C@@H]5CO[C@@H](c6cccs6)O[C@H]5[C@H](O)[C@H]3O)[C@H]3COC(=O)[C@H]23)OCO4)cc(OC)c1O [Teniposide] (100 nM)	normalised response	%	94.7
CC[C@@H]1C(=O)N(C)c2cnc(Nc3ccc(C(=O)NC4CCN(C)CC4)cc3OC)nc2N1C1CCCC1 [BI 2536] (10 nM)	normalised response	%	70.5
CC[C@H](Nc1ncnc2[nH]cnc12)c1nc2cccc(F)c2c(=O)n1-c1ccccc1 [GS-1101] (100 nM)	normalised response	%	94.6
Cc1cnc(NC(=O)Nc2cc(Br)c(C)cc2OC[C@@H]2CNCCO2)cn1 [Rabusertib] (10 nM)	normalised response	%	109
C=CC(=O)Nc1cc2c(Nc3ccc(F)c(Cl)c3)ncnc2cc1OCCCN1CCOCC1 [Canertinib] (100 nM)	normalised response	%	99.5

* * *

- Tested on: CAL-120
- procedure.text: normalised viability (% of control), CellTiter-Blue; higher = more viable cells (about 100 = DMSO control)
- experimental.conditions: 10 nM; incubation time: 72 h

compound	tested.on	normalised viability
CCN(CC)CCCC(C)Nc1c2ccc(Cl)cc2nc2ccc(OC)cc12 (centres undefined)	CAL-120	102%
O=C(Cc1ccc(-c2ccc(OCCN3CCOCC3)cc2)cn1)NCc1ccccc1	CAL-120	93.5%
COc1cc([C@@H]2c3cc4c(cc3[C@@H](O[C@@H]3O[C@@H]5CO[C@@H](c6cccs6)O[C@H]5[C@H](O)[C@H]3O)[C@H]3COC(=O)[C@H]23)OCO4)cc(OC)c1O [Teniposide]	CAL-120	108%
CC[C@H](Nc1ncnc2[nH]cnc12)c1nc2cccc(F)c2c(=O)n1-c1ccccc1	CAL-120	95.6%

* * *

- Tested on: HDQ-P1
- procedure.text: normalised response (% of control), CellTox Green; higher = less cell death (100 = DMSO, 0 = benzethonium chloride kill control)
- experimental.conditions: incubation time: 72 h
Listing: normalised response of selected compounds
endpoint.name: normalised response (%)

compound	unit.abbrev	value.measured
CCCS(=O)(=O)Nc1ccc(F)c(C(=O)c2c[nH]c3ncc(-c4ccc(Cl)cc4)cc23)c1F [Vemurafenib] (100 nM)	%	108
O=C(/C=C/c1cccnc1)NCCCCC1CCN(C(=O)c2ccccc2)CC1 [Daporinad] (100 nM)	%	103
Cc1cnc(NC(=O)Nc2cc(Br)c(C)cc2OC[C@@H]2CNCCO2)cn1 [Rabusertib] (10 nM)	%	94.3
N#Cc1ccc(C(c2ccc(C#N)cc2)n2cncn2)cc1 [Letrozole] (1000 nM)	%	102
N#Cc1ccc(C(c2ccc(C#N)cc2)n2cncn2)cc1 [Letrozole] (100 nM)	%	53.6
CC1=C(/C=C/C(C)=C/C=C/C(C)=C/C(=O)O)C(C)(C)CCC1 [Tretinoin] (1000 nM)	%	91.2
Nc1ccccc1NC(=O)c1ccc(CNC(=O)OCc2cccnc2)cc1 [Entinostat] (1000 nM)	%	109
CC[C@H](C)C(=O)O[C@H]1C[C@H](O)C=C2C=C[C@H](C)[C@H](CC[C@@H](O)C[C@@H](O)CC(=O)O)[C@H]21 [Pravastatin] (1000 nM)	%	112
O=C(Cc1ccc(-c2ccc(OCCN3CCOCC3)cc2)cn1)NCc1ccccc1 [KX2-391] (10000 nM)	%	8.87
COc1cc2nccc(Oc3ccc(NC(=O)Nc4cc(C)on4)c(Cl)c3)c2cc1OC [Tivozanib] (100 nM)	%	94.8
COc1cc2c(NC3CCN(C(C)C)CC3)nc(C3CCCCC3)nc2cc1OCCCN1CCCC1 [UNC0638] (10000 nM)	%	58.6
CC[C@@H]1C(=O)N(C)c2cnc(Nc3ccc(C(=O)NC4CCN(C)CC4)cc3OC)nc2N1C1CCCC1 [BI 2536] (1000 nM)	%	93
CCCCC(=O)OCC(=O)[C@]1(O)Cc2c(O)c3c(c(O)c2[C@@H](O[C@H]2C[C@H](NC(=O)C(F)(F)F)[C@H](O)[C@H](C)O2)C1)C(=O)c1c(OC)cccc1C3=O [Valrubicin] (500 nM)	%	131
COc1cc([C@@H]2c3cc4c(cc3[C@@H](O[C@@H]3O[C@@H]5CO[C@@H](c6cccs6)O[C@H]5[C@H](O)[C@H]3O)[C@H]3COC(=O)[C@H]23)OCO4)cc(OC)c1O [Teniposide] (10000 nM)	%	-41.5

* * *

- Tested on: MDA-MB-468
- procedure.text: normalised response (% of control), CellTox Green; higher = less cell death (100 = DMSO, 0 = benzethonium chloride kill control)
- experimental.conditions: incubation time: 72 h
normalised response by entry:
endpoint.name: normalised response (%)

compound	tested.on	unit.abbrev	value.measured
CCc1cncnc1N1CCN(Cc2nc3ccc(C(F)(F)F)cc3[nH]2)CC1 (10000 nM)	MDA-MB-468	%	103
C=CCc1cccc(/C=N/NC(=O)CN2CCN(Cc3ccccc3)CC2)c1O [PAC-1] (10000 nM)	MDA-MB-468	%	65.4
CC1=C(/C=C/C(C)=C/C=C/C(C)=C/C(=O)O)C(C)(C)CCC1 [Tretinoin] (100 nM)	MDA-MB-468	%	159
O=C(O)CCCCC(CCSCc1ccccc1)SCc1ccccc1 (centres undefined) [CPI-613] (100 nM)	MDA-MB-468	%	122
Cc1cnc(NC(=O)Nc2cc(Br)c(C)cc2OC[C@@H]2CNCCO2)cn1 [Rabusertib] (100 nM)	MDA-MB-468	%	128
CC[C@H](Nc1ncnc2[nH]cnc12)c1nc2cccc(F)c2c(=O)n1-c1ccccc1 [GS-1101] (100 nM)	MDA-MB-468	%	103
CCCS(=O)(=O)Nc1ccc(F)c(C(=O)c2c[nH]c3ncc(-c4ccc(Cl)cc4)cc23)c1F [Vemurafenib] (10000 nM)	MDA-MB-468	%	148
CNC(=O)c1cc(Oc2ccc(NC(=O)Nc3cc(C(C)(C)C)nn3-c3ccc4ncccc4c3)c(F)c2)ccn1 [Rebastinib] (1000 nM)	MDA-MB-468	%	64
O=C(O)C(=O)O.[NH-][C@@H]1CCCC[C@H]1[NH-].[Pt+2] [Oxaliplatin] (100 nM)	MDA-MB-468	%	110
CCc1cncnc1N1CCN(Cc2nc3ccc(C(F)(F)F)cc3[nH]2)CC1 (100 nM)	MDA-MB-468	%	108
CCN(CC)CCCC(C)Nc1c2ccc(Cl)cc2nc2ccc(OC)cc12 (centres undefined) [Mepacrine] (50000 nM)	MDA-MB-468	%	89.7
Nc1ncn([C@H]2C[C@H](O)[C@@H](CO)O2)c(=O)n1 [Decitabine] (10000 nM)	MDA-MB-468	%	90
COc1cc([C@@H]2c3cc4c(cc3[C@@H](O[C@@H]3O[C@@H]5CO[C@@H](c6cccs6)O[C@H]5[C@H](O)[C@H]3O)[C@H]3COC(=O)[C@H]23)OCO4)cc(OC)c1O [Teniposide] (10000 nM)	MDA-MB-468	%	29.8
O=C(O)C1(C(=O)O)CCC1.[NH2-].[NH2-].[Pt+2] [Carboplatin] (10000 nM)	MDA-MB-468	%	108
Cc1ccc(-c2cc(C(F)(F)F)nn2-c2ccc(S(N)(=O)=O)cc2)cc1 [Celecoxib] (100 nM)	MDA-MB-468	%	89.2
CC[C@H](C)C(=O)O[C@H]1C[C@H](O)C=C2C=C[C@H](C)[C@H](CC[C@@H](O)C[C@@H](O)CC(=O)O)[C@H]21 [Pravastatin] (10000 nM)	MDA-MB-468	%	21.1
COc1cc([C@@H]2c3cc4c(cc3[C@@H](O[C@@H]3O[C@@H]5CO[C@@H](c6cccs6)O[C@H]5[C@H](O)[C@H]3O)[C@H]3COC(=O)[C@H]23)OCO4)cc(OC)c1O [Teniposide] (100 nM)	MDA-MB-468	%	54.9
CC(=O)Nc1cccc(-n2c(=O)n(C3CC3)c(=O)c3c(Nc4ccc(I)cc4F)n(C)c(=O)c(C)c32)c1 [Trametinib] (2.5 nM)	MDA-MB-468	%	120
Oc1ncc(N(CCCl)CCCl)c(O)n1 [Uracil mustard] (1000 nM)	MDA-MB-468	%	120
CC[C@@H]1C(=O)N(C)c2cnc(Nc3ccc(C(=O)NC4CCN(C)CC4)cc3OC)nc2N1C1CCCC1 [BI 2536] (1000 nM)	MDA-MB-468	%	98.3
Nc1nc(F)nc2c1ncn2[C@@H]1O[C@H](CO)[C@@H](O)[C@@H]1O [Fludarabine] (1000 nM)	MDA-MB-468	%	124
COc1cc2c(NC3CCN(C(C)C)CC3)nc(C3CCCCC3)nc2cc1OCCCN1CCCC1 [UNC0638] (1000 nM)	MDA-MB-468	%	143
O=C(Cc1ccc(-c2ccc(OCCN3CCOCC3)cc2)cn1)NCc1ccccc1 [KX2-391] (1000 nM)	MDA-MB-468	%	23.4
CC[C@@H]1C(=O)N(C)c2cnc(Nc3ccc(C(=O)NC4CCN(C)CC4)cc3OC)nc2N1C1CCCC1 [BI 2536] (100 nM)	MDA-MB-468	%	73.3
C[C@H]1C[C@@H]2[C@H]([C@@H](O)C[C@@]3(C)[C@H]2CC[C@]3(O)C(=O)CO)[C@@]2(C)C=CC(=O)C=C12 [Methylprednisolone] (1000 nM)	MDA-MB-468	%	109
COc1cc2c(Oc3ccc4[nH]c(C)cc4c3F)ncnc2cc1OCCCN1CCCC1 [Cediranib] (10 nM)	MDA-MB-468	%	138
CCCS(=O)(=O)Nc1ccc(F)c(C(=O)c2c[nH]c3ncc(-c4ccc(Cl)cc4)cc23)c1F [Vemurafenib] (1000 nM)	MDA-MB-468	%	127
COc1cc2c(Oc3ccc4[nH]c(C)cc4c3F)ncnc2cc1OCCCN1CCCC1 [Cediranib] (1000 nM)	MDA-MB-468	%	153
O=C(O)C(=O)O.[NH-][C@@H]1CCCC[C@H]1[NH-].[Pt+2] [Oxaliplatin] (10000 nM)	MDA-MB-468	%	124
